# Test system: Huh7 cells
# MEASUREMENT_NOTES: CellTiter-Glo counter-screen, Huh7
# Assay type: cell-based
# CONDITION_LABEL: Homo sapiens, Huh-7, cancer cells
# Procedure: The hepatocarcinoma cell line Huh-7 was cultured in a DMEM/F12 (1:1) medium, supplemented with 10% FBS, penicillin (50 U/ml) and streptomycin (50 μg/ml). 696 confirmed hits from the confirmation screen were tested for profiling in a panel of 13 different cell types, using the same screening protocol described above (except in the case of embryonic stem cell-derived neural stem cells (NSCs) and mesenchymal stem cells (MSCs), for which the protocol is described below). […]
OBSERVABLE: inhibition at 20 µM (%)
Dear colleague, please return just the value in %, with no unit written.

Examples from the recorded data:
MOL	OBSERVABLE	VALUE_REPORTED
O=S(=O)(NNc1ccccc1)c1ccc2ccccc2c1	inhibition at 20 µM	3.6
CCCCCC(=O)NNc1ccc(Cl)cc1	inhibition at 20 µM	9.3
CCN(CC)C(=O)C(=O)c1c(-c2ccccc2)[nH]c2c1sc1ccccc12	inhibition at 20 µM	-1

# context switch: different molecule, same inhibition at 20 µM
Huh7 cells / inhibition at 20 µM / CC(=O)Oc1ccc(/C=C/c2ccc3c(c2)CCN3C)cc1 : value?
11.2
